assay: Acute toxicity, intravenous injection in mice; format: in vivo; conditions: mouse, in vivo, solution in isotonic aqueous sodium chloride, estimated
Where a name gives a salt, the structure may show the parent alone.
measured_attribute: LD50 (mg/kg)
Answer with a number only, understood to be in mg/kg.

Query: Returns the measured LD50 for the input compound. Input: COC1C(O)C(N)C(OC2OC(C(C)N)CCC2N)C(O)C1N(C)C(=O)CNC=N (stereo not shown) [SF-2052 substance sulfate]
Reply: 350

Hey, just so you know, these numbers are from patent US4242327A.
